system: NCI-H295R; experiment: area under concentration-response curve (viability) (AUC (a.u.)); higher = less active; conditions: 48 h
Exercise: state measured area under concentration-response curve for each of the compounds provided.
Respond numerically, and do not add a unit to the figure.

Prompt: Which value of area under concentration-response curve has been reported for "CNCCN(C)Cc1c[nH]nc1-c1ccc(O[C@H]2C[C@H](OCCC3CCOCC3)C2)cc1" in the records?
Completion: 546

Prompt: Which value of area under concentration-response curve has been reported for "NC(=O)c1nc(F)cnc1O" in the records?
Completion: 553

Prompt: Which value of area under concentration-response curve has been reported for "CCOc1cc(/C=C2/C(=O)N(c3ccccc3)N=C2C)cc(Cl)c1OCC(=O)OC" in the records?
Completion: 590

Prompt: Which value of area under concentration-response curve has been reported for "Cc1cc(Nc2nc(N[C@@H](C)c3ncc(F)cn3)ncc2Cl)n[nH]1" in the records?
Completion: 488

Prompt: Which value of area under concentration-response curve has been reported for "C[C@H](CN(C)C)Oc1nc(Nc2cc3cccc(Cl)c3cn2)cnc1C#N" in the records?
Completion: 456

Prompt: Which value of area under concentration-response curve has been reported for "CN[C@@H](C)[C@H]1[C@H](O)C[C@@]2(C)[C@@H]3CC[C@H]4C(C)(C)[C@@H](NC)CC[C@@]45C[C@@]35CC[C@]12C" in the records?
Completion: 613

Prompt: Which value of area under concentration-response curve has been reported for "Cc1nc(N)sc1-c1ccnc(Nc2ccc(N3CCOCC3)cc2)n1" in the records?
Completion: 414

Prompt: Which value of area under concentration-response curve has been reported for "c1cc(-c2sc(-c3ccncc3)c(-c3ccncc3)c2-c2ccncc2)ccn1" in the records?
Completion: 565

Prompt: Which value of area under concentration-response curve has been reported for "Cc1ccc(C(=O)c2cc(O)c(O)c([N+](=O)[O-])c2)cc1" in the records?
Completion: 598

Prompt: Which value of area under concentration-response curve has been reported for "Cc1nc(Nc2n[nH]c3c2CN(C(=O)N[C@H](CN(C)C)c2ccccc2)C3(C)C)c2sccc2n1" in the records?
Completion: 462

Prompt: Which value of area under concentration-response curve has been reported for "CC(=O)OCC(=O)[C@@]1(O)CC[C@H]2[C@@H]3CCC/4=C/C(=O)/C=C\[C@]4(C)[C@H]3[C@@H](O)C[C@]12C" in the records?
Completion: 506

Prompt: Which value of area under concentration-response curve has been reported for "CCN1CCN(c2ccc(Nc3cc(N(C)C(=O)Nc4c(Cl)c(OC)cc(OC)c4Cl)ncn3)cc2)CC1" in the records?
Completion: 479

Prompt: Which value of area under concentration-response curve has been reported for "c1ccc2c(CN3CCNCC3)cccc2c1" in the records?
Completion: 580

Prompt: Which value of area under concentration-response curve has been reported for "OCCC#Cc1nc(-c2ccc(F)cc2)c(-c2ccncc2)n1CCCc1ccccc1" in the records?
Completion: 475

Prompt: Which value of area under concentration-response curve has been reported for "CCCc1c(OCCCOc2ccc(OCC(=O)O)cc2)ccc(C(C)=O)c1O" in the records?
Completion: 548

Prompt: Which value of area under concentration-response curve has been reported for "CC(C)(O)c1coc([S+](=O)([O-])NC(=O)Nc2c3c(cc4c2CCC4)CCC3)c1" in the records?
Completion: 555

Prompt: Which value of area under concentration-response curve has been reported for "CC(C)[C@](O)(c1ccc2cc(OC(F)F)c(OC(F)F)cc2c1)c1c[nH]nn1" in the records?
Completion: 532

Prompt: Which value of area under concentration-response curve has been reported for "OC1=CC2=C(C(=O)\C=C(/O2)C3=CC=CC=C3)C(=C1O)O" in the records?
Completion: 489

Prompt: Which value of area under concentration-response curve has been reported for "C=CC(=O)Nc1cccc(Nc2nc(Nc3ccc(OCCOC)cc3)ncc2F)c1" in the records?
Completion: 545

Prompt: Which value of area under concentration-response curve has been reported for "c1ccc2c(CCNc3ccc(Nc4ccncc4)cc3)c[nH]c2c1" in the records?
Completion: 400

Prompt: Which value of area under concentration-response curve has been reported for "Cn1cnc([N+](=O)[O-])c1Sc1ncnc2nc[nH]c12" in the records?
Completion: 472

Prompt: Which value of area under concentration-response curve has been reported for "CONC(=O)Nc1ccc(-c2sc3c(c2CN(C)Cc2ccccc2)c(=O)n(-c2ccccc2)c(=O)n3Cc2c(F)cccc2F)cc1" in the records?
Completion: 556

Prompt: Which value of area under concentration-response curve has been reported for "COc1ccc(C(=O)CC(=O)c2ccc(C(C)(C)C)cc2)cc1" in the records?
Completion: 543

Prompt: Which value of area under concentration-response curve has been reported for "Cc1nnn(C)c1-c1cnc2c3ccc(C(C)(C)O)cc3n([C@H](c3ccccc3)C3CCOCC3)c2c1" in the records?
Completion: 425

Prompt: Which value of area under concentration-response curve has been reported for "Clc1ccccc1C(c1ccccc1)(c1ccccc1)n1cccn1" in the records?
Completion: 520

Prompt: Which value of area under concentration-response curve has been reported for "CN1CC[C@H]([C@@H](O)C1)C2=C(O)C=C(O)C3=C2O\C(=C/C3=O)C4=CC=CC=C4Cl" in the records?
Completion: 352

Prompt: Which value of area under concentration-response curve has been reported for "O=C(Nc1ccc2[nH]nc(-c3ccncc3)c2c1)[C@@H]1CCN(CC(=O)N2CCN(c3ccc(-c4ncccn4)cc3)CC2)C1" in the records?
Completion: 482

Prompt: Which value of area under concentration-response curve has been reported for COc1ccc(C2CNC(=O)C2)cc1OC1CCCC1 (centres undefined) in the records?
Completion: 501

Prompt: Which value of area under concentration-response curve has been reported for CC1(C)CC(=O)c2c(C(F)(F)F)nn(-c3ccc(C(N)=O)c(NC4CCC(OC(=O)CN)CC4)c3)c2C1 (centres undefined) in the records?
Completion: 431
